assay.comment: Polarity of lipids (no method described)
Format: physicochemical
condition.info: further lipids with polarity ≥ 30 mN/m, listed by INCI name
reported.endpoint: Polarität

The examples below pair each entry with its known result.
[[record]]
compound = "CCCCCCCCCCCCCC(C)C [Isohexadecane]"
test_result = "43,8 mN/m"

[[record]]
compound = "CCCCC(CC)COC(=O)CCCCCC(C)C (centres unmarked) [2- Ethylhexyl Isononanoate]"
test_result = "31,0 mN/m"

[[record]]
compound = "CCCCCCCC/C=C\\CCCCCCCC(=O)OCCOCCOCC [Ethoxydiglycol Oleate]"
test_result = "40,5 mN/m"

[[record]]
compound = "CCCCCCCCOC(=O)CCCCCCCCCCCCCCC(C)C [Octyl Isostearate]"
test_result = "31,6 mN/m"


Next, consider the following compound.
Prompt: Dear colleague, I am looking for the recorded Polarität of the following compound: CC(CCOC(=O)CC(C)CC(C)(C)C)CC(C)(C)C (centres unmarked) [Trimethylhexyl Isononanoate]
Response: 31,1 mN/m

###

assay.comment: Polarity of lipids (no method described)
Assay type: physicochemical
condition.info: lipids of the oil phase with polarity ≤ 30 mN/m, listed by manufacturer, trade name and INCI name
reported.endpoint: Polarität

Some solved entries appear below for comparison.
[[record]]
molecule = "CCCCCCCCCCCCCC(=O)OCC(CCCCCCCC)CCCCCCCCCC (stereo not shown) [M.O.D., Octyldodeceyl Myristate]"
test_result = "22,1 mN/m"

[[record]]
molecule = "CCCCCCOCCCCCC"
test_result = "29,2 mN/m"

[[record]]
molecule = "CCCCCCC(CO)CCCC (stereo not shown)"
test_result = "17,4 mN/m"


Prompt: Give the measured Polarität of CCCCCCCCCCCCCCCCCC(=O)OC(C)C [Isopropylstearat, Isopropyl Stearate] .
Response: 21,9 mN/m

Prompt: What value of Polarität has been recorded for this entry: CCCCCCCCCCC(CO)CCCCCCCC (stereo not shown)
Response: 24,8 mN/m

Prompt: Query (molecule): CCCCOC(=O)CCCCC(=O)OCCCC [Cetiol B, Dibutyl Adipate] ; field requested: Polarität
Response: 14,3 mN/m

Prompt: Could you share which Polarität value was measured for CCCCCCCC(=O)OCCCCCCCC(C)C [Dermol 108, Isodecyl Octanoate] ?
Response: 29,6 mN/m

Prompt: Could you share which Polarität value was measured for CC(C)CCCCCCCOC(=O)CC(C)CC(C)(C)C (stereo not shown) [Dermol 109, Isodecyl 3,5,5 Trimethyl Hexanoate] ?
Response: 29,1 mN/m

Prompt: Looking for the measured Polarität of CCCCC(CC)C(=O)OCCC(C)CC(C)(C)C (stereo not shown) , can you help?
Response: 26,2 mN/m

Prompt: Can you share its Polarität? I mean this molecule: CCCCCCC(CCCC)C(=O)O (stereo not shown)
Response: 22,1 mN/m

###

Measured Polarität by item
assay.comment: Polarity of lipids (no method described)
Format: physicochemical
condition.info: lipids of the oil phase with polarity ≤ 30 mN/m, listed by manufacturer, trade name and INCI name

Examples from the recorded data:
[[record]]
compound = "CCCCCCCCCC(=O)OCCCC(C)C [Dermol IHD, Isohexyldecanoate]"
test_result = "29,7 mN/m"

[[record]]
compound = "CC(C)CCCCCCCOC(=O)C(C)(C)C [DUB VCI 10, Isodecyl Neopentanoate]"
test_result = "29,9 mN/m"

[[record]]
compound = "CCCCCCCC(=O)OCC(COC(=O)CCCCCCC)OC(=O)CCCCCCC"
test_result = "20,2 mN/m"


Prompt: Looking for the measured Polarität of CCCCCCCCCCCCCCCCCCOC(=O)CCCCCC [Tegosoft SH, Stearyl Heptanoate] , can you help?
Response: 17,8 mN/m

Prompt: What value of Polarität has been reported for the following compound? CCCCCCCCC(CO)CCCCCC (centres unmarked)
Response: 24,3 mN/m
